Attribution: patent US20170281723A1

Molecular target: Calcineurin (CN), purified as glutathione S-transferase fusion protein from Escherichia coli BL21 cells (UniProt Q08209)
Assay: fluorescence anisotropy, N-terminal 5(6)-SFX labeled peptide (100 nM) titrated with CN
Starred links: 1 amine or outer side, 2 acyl side, 3 side chain; linkers in the order of their positions; H or OH if unused. Non-standard residues stand in square brackets, D forms with d. *: point of attachment. Cys(ΨMe,MePro) = 2,2-dimethyl-L-thiazolidine-4-carboxylic acid, cis-proline analog, CC1(C)SC[C@@H](C(=O)[*:2])N1[*:1]; F∗ = N-terminal 5(6)-SFX fluorescein label; Tle = CC(C)(C)[C@H](N)C(=O)O; NHPr = CCCN*
PROPERTY: Kd (nM)
Only the number, expressed in nM, is required.

input: Answer with the recorded Kd of {F∗}-GPHP[Tle]I[Tle]ITG[Cys(ΨMe,MePro)]HEEG-NHPr (also called FITC-labeled ZIZIT-cisPro) [F*-GPHPZIZITG-Cys(Ψ^Me,MePro)-HEEG-Propyl (F*-ZIZIT-cis), fluorescein-labeled ZIZIT-cisPro] only.
output: 2.6
